I'd be grateful if you could share measured inhibition for these entries.
# experimental system: Protein RecA (Mycobacterium tuberculosis (strain ATCC 25618 / H37Rv)) (UniProt P9WHJ3)
# Sequence (P9WHJ3 whole entry, looked up): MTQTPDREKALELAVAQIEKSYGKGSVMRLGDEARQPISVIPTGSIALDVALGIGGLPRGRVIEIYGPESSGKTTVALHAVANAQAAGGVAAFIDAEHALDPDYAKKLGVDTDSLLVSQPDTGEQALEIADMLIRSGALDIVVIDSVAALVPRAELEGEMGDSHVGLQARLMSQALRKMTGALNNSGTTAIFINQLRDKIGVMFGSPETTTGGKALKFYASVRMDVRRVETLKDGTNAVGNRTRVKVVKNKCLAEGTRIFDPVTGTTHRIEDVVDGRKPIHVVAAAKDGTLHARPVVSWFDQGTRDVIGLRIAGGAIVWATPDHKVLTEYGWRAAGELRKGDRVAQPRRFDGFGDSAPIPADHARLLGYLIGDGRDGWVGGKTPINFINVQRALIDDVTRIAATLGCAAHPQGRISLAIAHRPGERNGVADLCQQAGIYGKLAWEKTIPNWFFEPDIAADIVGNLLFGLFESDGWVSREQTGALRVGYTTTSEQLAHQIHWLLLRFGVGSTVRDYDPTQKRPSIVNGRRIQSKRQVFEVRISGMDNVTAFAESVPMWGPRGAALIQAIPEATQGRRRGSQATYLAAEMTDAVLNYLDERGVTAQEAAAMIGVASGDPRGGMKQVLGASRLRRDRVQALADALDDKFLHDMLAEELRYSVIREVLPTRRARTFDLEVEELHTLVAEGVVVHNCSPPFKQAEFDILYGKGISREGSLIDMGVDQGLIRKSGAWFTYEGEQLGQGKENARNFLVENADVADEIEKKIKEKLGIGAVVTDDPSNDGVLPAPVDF
# experiment: Mtb RecA intein splicing inhibitors, primary screen, biochemical, fluorescence, HTS (AID 2221);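 further: 0% = vehicle wells and 100% = reference inhibitor control wells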
# stated conditions: cell-free RecA intein splicing, hits give high values, concentration not given here
In all, about 290,000 compounds went through this assay and about 2,200 (0.76%) were called active. The entries come from a sample that favours actives as a whole.
One number for each entry, in %.

* O=C(O)C1CCCN(CCC=C(c2ccccc2)c2ccccc2)C1 (stereo unspecified) | -1.43
* CSc1ccc(S(=O)(=O)NCC(=O)OCC(=O)NC2(C#N)CCCCC2)cc1[N+](=O)[O-] | 1.65
* COCCNC(=O)COc1ccc(N(C)S(=O)(=O)c2ccc3ccccc3c2)cc1 | 2.67

Hi, could you look up inhibition for each item in my list?
1. Cc1cccc(OC(C)C(=O)N2CCc3ccccc3C2)c1 (stereo unspecified)
2. CC(=O)c1cccc(NC(=O)c2ccncc2)c1

[0.662, -0.301]

List reported inhibition for each of these compounds:
1. COc1cc(OC)c(S(=O)(=O)Nc2ccccc2C(=O)O)cc1S(=O)(=O)Nc1ccccc1C(=O)O
2. C=CCN1C(=NC(=O)COc2ccccc2)SC2CS(=O)(=O)CC21 (stereo unspecified)
3. Cc1cc(C)nc(Nc2cc([N+](=O)[O-])ccc2C)n1
4. CCOC(=O)C1Cn2c(nc3c(c2=O)C(C)(CC)Cc2ccccc2-3)S1 (stereo unspecified)
5. Cc1ccc(Nc2cc(C)nc3c(C)ccc([N+](=O)[O-])c23)cc1
6. Cc1ccc(Nc2ccc(C(N)=O)cc2[N+](=O)[O-])cc1

-1.6
-0.786
-2.26
-3.72
63.3
2.38
